Provide the recorded IC50 for the entries that follow.
molecular target: uptake of serotonin (Homo sapiens); assay: Uptake inhibition of serotonin, cellular assay; format: cell-based; conditions: read-out: Serotonin reuptake inhibition (IC50 μM)
Where a name gives a salt, the structure may show the parent alone.

Look up uptake of serotonin (Homo sapiens) data: IC50 of CNCCC(Oc1ccc(CCO)cc1)c1ccccc1 (single isomer, unassigned) [Example 6] , then report it.
2.5 to 4.8 µM

Look up uptake of serotonin (Homo sapiens) data: IC50 of CCCC(CCC)C(=O)N(C)CCC(Oc1ccc(CCO)cc1)c1ccccc1 (centres unmarked) [Example 11] , then report it.
2.5 to 4.8 µM

Look up uptake of serotonin (Homo sapiens) data: IC50 of CNCCC(Oc1cc(CCO)cc(CCO)c1)c1ccccc1 (centres unmarked) [Example 20] , then report it.
2.5 to 4.8 µM

Look up uptake of serotonin (Homo sapiens) data: IC50 of CNCCC(Oc1ccc(CCCCO)cc1)c1ccccc1 (centres unmarked) [Example 14, hydrochloride] , then report it.
0.32 µM

Look up uptake of serotonin (Homo sapiens) data: IC50 of CN(C)CC(Oc1ccc(CCO)cc1)C1(O)CCCCC1 (centres unmarked) [Example 32] , then report it.
2.5 to 4.8 µM

====

target: uptake of serotonin (Homo sapiens); assay: Uptake inhibition of serotonin, cellular assay; format: cell-based; details: read-out: Serotonin reuptake inhibition (IC50 μM)
Where a name gives a salt, the structure may show the parent alone.
Observable: IC50

Answer with the recorded IC50 for the molecule listed here: CN(C)CCC(Oc1ccc(CCO)cc1)c1ccccc1 (centres unmarked) [Example 24]
2.5 to 4.8 µM

Answer with the recorded IC50 for the molecule listed here: Cl.NCCC(Oc1ccc(CCO)cc1)c1ccccc1 (centres unmarked) [Example 12, hydrochloride]
1 µM

Answer with the recorded IC50 for the molecule listed here: CNCCC(Oc1ccc(C/C=C/CO)cc1)c1ccccc1 (centres unmarked) [Example 25]
2.5 to 4.8 µM

Answer with the recorded IC50 for the molecule listed here: OCCc1ccc(OC[C@@H]2CNCC[C@H]2c2ccc(F)cc2)cc1 [Example 30]
2.5 to 4.8 µM

Answer with the recorded IC50 for the molecule listed here: CN(C)CC(Oc1ccc(CCO)cc1)C1CCCCC1O (centres unmarked) [Example 31]
2.5 to 4.8 µM

Answer with the recorded IC50 for the molecule listed here: CNCCC(Oc1cc(CO)cc(CO)c1)c1ccccc1 (centres unmarked) [Example 19, hydrochloride]
4.35 µM

Answer with the recorded IC50 for the molecule listed here: CNCCC(Oc1ccc(CCCO)cc1)c1ccccc1 (centres unmarked) [Example 16, hydrochloride]
2.36 µM

Answer with the recorded IC50 for the molecule listed here: CNCCC(Oc1cc(CCCCO)cc(CCCCO)c1)c1ccccc1 (centres unmarked) [Example 22]
2.5 to 4.8 µM

Answer with the recorded IC50 for the molecule listed here: CNCCC(Oc1ccc(/C=C/CCCCO)cc1)c1ccccc1 (centres unmarked) [Example 27]
2.5 to 4.8 µM

Answer with the recorded IC50 for the molecule listed here: CNCCC(Oc1ccc(CCOC(C)=O)cc1)c1ccccc1 (centres unmarked) [Example 10, acetate hydrochloride]
2.5 to 4.8 µM

Answer with the recorded IC50 for the molecule listed here: CNCC[C@H](Oc1ccc(CCO)cc1)c1ccccc1.Cl [Example 4, hydrochloride]
2.5 to 4.8 µM

Answer with the recorded IC50 for the molecule listed here: CNCCC(Oc1ccc(CO)cc1)c1ccccc1 (centres unmarked) [Example 17, hydrochloride]
0.42 µM

Answer with the recorded IC50 for the molecule listed here: CNCCC(Oc1cc(CCCO)cc(CCCO)c1)c1ccccc1 (centres unmarked) [Example 21]
2.5 to 4.8 µM

Answer with the recorded IC50 for the molecule listed here: CNCC[C@H](Oc1ccc(CCO)cc1)c1cccs1 [Example 28]
2.5 to 4.8 µM

====

molecular target: uptake of norepinephrine (Homo sapiens, UniProt P23975); test: Uptake inhibition of norepinephrine, cellular assay; type: cell-based; settings: read-out: Norepinephrine reuptake inhibition (IC50 μM)
Sequence (P23975 whole entry): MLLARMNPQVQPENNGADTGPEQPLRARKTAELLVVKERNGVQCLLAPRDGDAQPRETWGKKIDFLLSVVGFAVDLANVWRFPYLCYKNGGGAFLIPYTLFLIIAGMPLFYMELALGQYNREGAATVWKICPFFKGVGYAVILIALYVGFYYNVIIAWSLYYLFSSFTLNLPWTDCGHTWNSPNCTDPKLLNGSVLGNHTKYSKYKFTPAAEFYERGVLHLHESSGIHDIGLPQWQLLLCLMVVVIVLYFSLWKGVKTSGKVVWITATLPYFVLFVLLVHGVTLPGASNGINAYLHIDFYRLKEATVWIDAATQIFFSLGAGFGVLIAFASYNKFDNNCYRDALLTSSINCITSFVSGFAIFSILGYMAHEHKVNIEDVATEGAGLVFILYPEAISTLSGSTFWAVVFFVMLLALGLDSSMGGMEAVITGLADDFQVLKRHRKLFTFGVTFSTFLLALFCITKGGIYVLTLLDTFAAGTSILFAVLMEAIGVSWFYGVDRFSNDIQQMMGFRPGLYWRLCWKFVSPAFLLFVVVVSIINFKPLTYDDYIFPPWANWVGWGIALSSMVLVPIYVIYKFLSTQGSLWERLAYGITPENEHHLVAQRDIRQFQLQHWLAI
Structures can show the parent of a compound that is named as a salt.
Provide the recorded IC50 for the entries that follow.

Look up uptake of norepinephrine (Homo sapiens, UniProt P23975) data: IC50 of CN(C)CCC(Oc1ccc(CCO)cc1)c1ccccc1 (stereo not drawn) [Example 24] , then report it.
1.6 to 2.9 µM

Look up uptake of norepinephrine (Homo sapiens, UniProt P23975) data: IC50 of CNCCC(Oc1ccc(CCO)cc1)c1ccccc1 (single isomer, unassigned) [Example 7] , then report it.
1.6 to 2.9 µM

Look up uptake of norepinephrine (Homo sapiens, UniProt P23975) data: IC50 of CNCCC(Oc1ccc(CCCCO)cc1)c1ccccc1 (stereo not drawn) [Example 14, hydrochloride] , then report it.
0.74 µM

Look up uptake of norepinephrine (Homo sapiens, UniProt P23975) data: IC50 of Cl.OCCc1ccc(OCC2CNCCO2)cc1 (stereo not drawn) [Example 18, hydrochloride] , then report it.
1.6 to 2.9 µM

Look up uptake of norepinephrine (Homo sapiens, UniProt P23975) data: IC50 of CCCC(CCC)C(=O)N(C)CCC(Oc1ccc(CCO)cc1)c1ccccc1 (stereo not drawn) [Example 11] , then report it.
1.6 to 2.9 µM

Look up uptake of norepinephrine (Homo sapiens, UniProt P23975) data: IC50 of CN(C)CC(Oc1ccc(CCO)cc1)C1(O)CCCCC1 (stereo not drawn) [Example 32] , then report it.
1.6 to 2.9 µM

Look up uptake of norepinephrine (Homo sapiens, UniProt P23975) data: IC50 of CNCCC(Oc1cc(CO)cc(CO)c1)c1ccccc1 (stereo not drawn) [Example 19, hydrochloride] , then report it.
1.59 µM

Look up uptake of norepinephrine (Homo sapiens, UniProt P23975) data: IC50 of OCCc1ccc(OC[C@@H]2CNCC[C@H]2c2ccc(F)cc2)cc1 [Example 30] , then report it.
1.6 to 2.9 µM

Look up uptake of norepinephrine (Homo sapiens, UniProt P23975) data: IC50 of CNCCC(Oc1ccc(CCO[C@@H]2O[C@H](CO)[C@@H](O)[C@H](O)[C@H]2O)cc1)c1ccccc1 (stereo partly drawn) [Example 23] , then report it.
1.6 to 2.9 µM

====

target: uptake of norepinephrine (Homo sapiens, UniProt P23975); assay: Uptake inhibition of norepinephrine, cellular assay; format: cell-based; conditions: read-out: Norepinephrine reuptake inhibition (IC50 μM)
Where a name gives a salt, the structure may show the parent alone.
Observable: IC50

Answer with the recorded IC50 for the compound listed here: CNCCC(Oc1cc(CCCO)cc(CCCO)c1)c1ccccc1 (stereo not drawn) [Example 21]
1.6 to 2.9 µM

Answer with the recorded IC50 for the compound listed here: CNCC[C@@H](Oc1ccc(CCO)cc1)c1cccs1 [Example 13]
2.8 µM

Answer with the recorded IC50 for the compound listed here: Cl.NCCC(Oc1ccc(CCO)cc1)c1ccccc1 (stereo not drawn) [Example 12, hydrochloride]
2.7 µM

Answer with the recorded IC50 for the compound listed here: CNCC[C@@H](Oc1ccc(CCO)cc1)c1ccccc1.Cl [Example 3, hydrochloride]
1.6 to 2.9 µM

Answer with the recorded IC50 for the compound listed here: CNCCC(Oc1ccc(CCCO)cc1)c1ccccc1 (stereo not drawn) [Example 16, hydrochloride]
0.46 µM

Answer with the recorded IC50 for the compound listed here: CNCC[C@H](Oc1ccc(CCO)cc1)c1ccccc1.Cl [Example 4, hydrochloride]
1.6 to 2.9 µM

Answer with the recorded IC50 for the compound listed here: CNCCC(Oc1cc(CCCCO)cc(CCCCO)c1)c1ccccc1 (stereo not drawn) [Example 22]
1.6 to 2.9 µM

Answer with the recorded IC50 for the compound listed here: CNCCC(Oc1ccc(CCOC(C)=O)cc1)c1ccccc1 (stereo not drawn) [Example 10, acetate hydrochloride]
1.6 to 2.9 µM

Answer with the recorded IC50 for the compound listed here: CNCCC(Oc1ccc(C/C=C/CO)cc1)c1ccccc1 (stereo not drawn) [Example 25]
1.6 to 2.9 µM

====

molecular target: uptake of serotonin (Homo sapiens, UniProt P31645); assay: Uptake inhibition of serotonin, cellular assay; assay type: cell-based; details: Serotonin reuptake inhibition (IC50 μM)
Sequence (P31645 whole entry): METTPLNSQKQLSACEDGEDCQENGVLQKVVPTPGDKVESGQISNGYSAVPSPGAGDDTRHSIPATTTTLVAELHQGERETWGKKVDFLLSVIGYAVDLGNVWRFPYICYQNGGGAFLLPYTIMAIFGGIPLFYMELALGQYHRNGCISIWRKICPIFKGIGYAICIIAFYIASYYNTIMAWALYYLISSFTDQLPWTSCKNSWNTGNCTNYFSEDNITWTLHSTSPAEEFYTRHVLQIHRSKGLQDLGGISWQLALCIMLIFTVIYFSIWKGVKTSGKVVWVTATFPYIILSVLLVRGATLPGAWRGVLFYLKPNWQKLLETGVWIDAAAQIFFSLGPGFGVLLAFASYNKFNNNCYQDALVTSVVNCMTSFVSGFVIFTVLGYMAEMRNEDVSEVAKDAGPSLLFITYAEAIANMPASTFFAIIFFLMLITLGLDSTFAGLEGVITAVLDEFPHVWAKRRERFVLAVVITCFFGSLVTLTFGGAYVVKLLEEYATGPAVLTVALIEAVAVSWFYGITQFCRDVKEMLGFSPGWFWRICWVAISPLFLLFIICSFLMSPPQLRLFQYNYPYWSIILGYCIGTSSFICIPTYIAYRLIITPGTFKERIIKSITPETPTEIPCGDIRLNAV
Observable: IC50

Answer with the recorded IC50 for the molecule listed here: CNCCC(Oc1ccc(CCO)cc1)c1ccccc1 (stereo not drawn) [Example 9]
2.5 to 4.8 µM

Answer with the recorded IC50 for the molecule listed here: CNCCC(Oc1ccc(CCO)cc1)c1ccccc1 (stereo not drawn) [Example 8]
2.5 to 4.8 µM

Answer with the recorded IC50 for the molecule listed here: CNCCC(Oc1ccc(CCO)cc1)c1ccccc1 (stereo not drawn) [Example 5]
2.5 to 4.8 µM

====

Provide the recorded IC50 for the entries that follow.
biological target: uptake of norepinephrine (Homo sapiens, UniProt P23975); assay: Uptake inhibition of norepinephrine, cellular assay; assay type: cell-based; conditions: Norepinephrine reuptake inhibition (IC50 μM)

Answer with the recorded IC50 for the compound listed here: CNCCC(Oc1ccc(CCO)cc1)c1ccccc1 (stereo not drawn) [Example 5]
1.6 to 2.9 µM

Answer with the recorded IC50 for the compound listed here: CNCCC(Oc1ccc(CCO)cc1)c1ccccc1 (stereo not drawn) [Example 9]
1.6 to 2.9 µM

Answer with the recorded IC50 for the compound listed here: CNCCC(Oc1ccc(CCO)cc1)c1ccccc1 (stereo not drawn) [Example 8]
1.6 to 2.9 µM
